Molecular target: Nuclear receptor subfamily 1 group I member 2 (Homo sapiens)
Assay: Human pregnane X receptor (PXR) activation by small molecules, qHTS assay (AID 1346985); also: nearly all actives have a fitted effect of over 40% in size
Settings: DPX-2 HepG2 CYP3A4-luciferase, 24 h; series mostly up to 38.3 µM
Description: National Center for Advancing Translational Sciences [NCATS] NIH Chemical Genomics Center [NCGC] U.S. Environmental Protection Agency [EPA] National Institutes of Environmental Health Sciences [NIEHS] National Toxicology Program [NTP] The Pregnane X receptor (PXR), a ligand activated nuclear receptor plays a critical role in the regulation of genes involved in drug metabolism and transporters. Activation of PXR may be involved in the unwanted adverse drug-drug interactions. […]
Inconclusive results are not listed. Activity calls are given as the source filed them. Calls follow the shape of the dose curve; as a rule, active = well fitted activation curve with a large enough effect in the repeat runs; inconclusive = weak or mixed curves; inactive = flat fitted curve, though single readings scatter.
Form entry, call: pick from active, inactive

Compound | Cat
CCCCN1C[C@H](O)[C@@H](O)[C@H](O)[C@H]1CO | inactive
CC1(C)O[C@@H]2C[C@H]3[C@@H]4CCC5=CC(=O)CC[C@]5(C)[C@@]4(F)[C@@H](O)C[C@]3(C)[C@]2(C(=O)CCl)O1 | active
c1ccc(CN(CC2=NCCN2)c2ccccc2)cc1 | inactive
CCc1nnc(NS(=O)(=O)c2ccc(N)cc2)s1 | inactive
OCc1ccccc1O | inactive

Identify the outcome logged in this assay for the compound shown: CC(C)C1=CC2=CC[C@@H]3[C@](C)(CCC[C@@]3(C)C(=O)O)[C@H]2CC1 inactive
